Recorded values, source ChEMBL document CHEMBL1201862.

test system: BT-549; test: NCI tumour cell line growth inhibition, 48 h
Calls of active or inactive are those of the source. Cut-off read from the data, not from the text of the source: active = GI50 up to about 1.1 µM and inactive = higher.
Parameter GI50: see the listing below.
PARAMETER: GI50

[[record]]
compound = "CN1CC[C@@]2(c3cccc(O)c3)CC(=O)/C(=C/c3ccccc3)[C@H]1C2.[O-][Cl+3]([O-])([O-])O"
tgt = "BT-549"
recorded_result = "11.8 µM (inactive)"

[[record]]
compound = "S=C1Cc2c(-c3ccccc3)cc(-c3ccc(Cl)cc3)nc2-c2ccccc2N1"
tgt = "BT-549"
recorded_result = "5.56 µM (inactive)"

[[record]]
compound = "c1ccc2c(c1)nc1ccccn12"
tgt = "BT-549"
recorded_result = "> 100 µM (inactive)"

[[record]]
compound = "CC1=CC(C)C(C)N(CCNS(=O)(=O)c2ccc(C)cc2)c2ccccc21 (stereo not given)"
tgt = "BT-549"
recorded_result = "17.1 µM (inactive)"

[[record]]
compound = "CCN(CC)/[N+]([O-])=N/OCOC"
tgt = "BT-549"
recorded_result = "> 100 µM (inactive)"

[[record]]
compound = "O=[N+]([O-])c1ccc(NC(=S)N/N=C(\\c2ccccc2)c2ccccn2)cc1"
tgt = "BT-549"
recorded_result = "1.63 µM (inactive)"

[[record]]
compound = "C=CC(O)(CBr)CCC(Br)C(=C)C (stereo not given)"
tgt = "BT-549"
recorded_result = "> 10 µM (inactive)"

[[record]]
compound = "Cc1cn(S(=O)(=O)c2ccccc2)c2c(OCc3ccccc3)cc(NC(=O)c3cc4cc([N+](=O)[O-])ccc4s3)cc12"
tgt = "BT-549"
recorded_result = "> 100 µM (inactive)"

[[record]]
compound = "CCOC(=O)N/N=C(\\CC)NO"
tgt = "BT-549"
recorded_result = "> 100 µM (inactive)"

[[record]]
compound = "Cc1cc(NS(=O)(=O)c2ccc(Nc3c4ccccc4nc4ccc(C(=O)Nc5ccc(S(=O)(=O)N=C(N)N)cc5)cc34)cc2)no1"
tgt = "BT-549"
recorded_result = "> 100 µM (inactive)"


* * *

GI50: recorded values
system: HT-29; assay: NCI tumour cell line growth inhibition, 48 h
Calls of active or inactive are those of the source. No stated cut-off is given here; in the data, active = GI50 up to about 1.1 µM and inactive = higher.
PARAMETER: GI50

[[record]]
molecule = "O=C1Sc2ccccc2NC1=C(C(=O)c1ccccc1)C(=O)c1ccccc1"
parameter = "GI50"
recorded_result = "22.5 µM (inactive)"

[[record]]
molecule = "COc1cccc(OC)c1/C=C1\\OC(=O)c2cccc(OC)c21"
parameter = "GI50"
recorded_result = "2.11 µM (inactive)"

[[record]]
molecule = "Cn1c(=O)n2n(c1=O)[C@@H](c1ccccc1)[C@H]2c1ccccc1"
parameter = "GI50"
recorded_result = "> 100 µM (inactive)"

[[record]]
molecule = "CN1C/C(=C\\c2ccccc2)C2=NN(C(N)=S)[C@H](c3ccccc3)[C@@H]2C1"
parameter = "GI50"
recorded_result = "32.9 µM (inactive)"

[[record]]
molecule = "CCCCCCCCCCC1OC([C@@H](O)CC[C@H](O)C2CC[C@@H](CCCCCCCC(O)CC3=CC(C)OC3=O)O2)CCC1O (some centres not stated)"
parameter = "GI50"
recorded_result = "5.4 µM (inactive)"

[[record]]
molecule = "COc1ccc2c(c1OC)OCC(CN(C)C)C2=O (configuration not stated)"
parameter = "GI50"
recorded_result = "15.4 µM (inactive)"

[[record]]
molecule = "O=C1Nc2cccc3cc(NCC(O)CCl)cc1c23 (configuration not stated)"
parameter = "GI50"
recorded_result = "58.7 µM (inactive)"

[[record]]
molecule = "CC1=NN(C(=O)CC(=O)Nc2cccc(Cl)c2)C(=O)C1/N=N/c1ccc(C(=O)O)cc1 (configuration not stated)"
parameter = "GI50"
recorded_result = "> 100 µM (inactive)"

[[record]]
molecule = "Cc1ccc(NC(=O)CC/C(CC(=O)C(C)(C)C)=N\\Nc2ccc([N+](=O)[O-])cc2[N+](=O)[O-])cc1C"
parameter = "GI50"
recorded_result = "57 µM (inactive)"

[[record]]
molecule = "O=C1OC(c2ccccc2)=N/C1=C\\c1cccc(F)c1"
parameter = "GI50"
recorded_result = "> 100 µM (inactive)"

[[record]]
molecule = "Nn1c(SCC(=O)NCc2ccccc2)nc2ccccc2c1=O"
parameter = "GI50"
recorded_result = "45.4 µM (inactive)"

[[record]]
molecule = "CC1=CC(=O)NP(=O)(Oc2ccc(C)cc2)N1 (configuration not stated)"
parameter = "GI50"
recorded_result = "> 100 µM (inactive)"

[[record]]
molecule = "CC1=CC(C)C(C)N(CCNS(=O)(=O)c2ccc(C)cc2)c2ccccc21 (configuration not stated)"
parameter = "GI50"
recorded_result = "12.5 µM (inactive)"

[[record]]
molecule = "Cc1ccc(-c2c3c(n(C4OC(CO)C(O)C(O)C4O)c(=S)c2C#N)CC(C)(C)CC3=O)cc1 (configuration not stated)"
parameter = "GI50"
recorded_result = "33.1 µM (inactive)"

[[record]]
molecule = "Nc1nc(Cl)cc(/N=N\\c2ccccc2)n1"
parameter = "GI50"
recorded_result = "31.3 µM (inactive)"

[[record]]
molecule = "O=C1NC2OC(C(O)CO)C(O)C2O1 (configuration not stated)"
parameter = "GI50"
recorded_result = "> 100 µM (inactive)"

[[record]]
molecule = "COc1cc(C2SC(=N)Nc3c2c(C)nn3C(=O)c2ccc(Cl)cc2)cc(OC)c1OC (configuration not stated)"
parameter = "GI50"
recorded_result = "> 10 µM (inactive)"

[[record]]
molecule = "O=C(COc1ccc(Cl)cc1)N1CCN(C(=O)COc2ccc(Cl)cc2)c2ccccc21"
parameter = "GI50"
recorded_result = "50.5 µM (inactive)"

[[record]]
molecule = "CSc1nc2c(ncn2C2OC(CO)C(O)C(O)C2O)c(=O)[nH]1 (configuration not stated)"
parameter = "GI50"
recorded_result = "> 100 µM (inactive)"

[[record]]
molecule = "c1ccc(-c2cc3[nH]c4ccccc4[nH]c-3cc(-c3ccccc3)nn2)cc1"
parameter = "GI50"
recorded_result = "50.9 µM (inactive)"

[[record]]
molecule = "S=C1Cc2c(-c3ccccc3)cc(-c3ccc(Cl)cc3)nc2-c2ccccc2N1"
parameter = "GI50"
recorded_result = "2.65 µM (inactive)"

[[record]]
molecule = "O=C(N/C(=C\\c1ccc([N+](=O)[O-])cc1)c1nc2cc(Cl)ccc2[nH]1)c1ccccc1"
parameter = "GI50"
recorded_result = "20.3 µM (inactive)"

[[record]]
molecule = "OCC(O)C(OC1OC(CO)C(O)C(O)C1O)c1nn(-c2ccc(F)cc2)c2nc3cc(Cl)c(Cl)cc3cc12 (configuration not stated)"
parameter = "GI50"
recorded_result = "> 100 µM (inactive)"

[[record]]
molecule = "O=c1[nH]c(NCc2ccncc2)nc2[nH]cnc12"
parameter = "GI50"
recorded_result = "> 100 µM (inactive)"

[[record]]
molecule = "CC(=O)OCC1OC(NC(=S)CCSc2nc3ccccc3c(=O)n2-c2ccccc2)C(OC(C)=O)C(OC(C)=O)C1OC(C)=O (configuration not stated)"
parameter = "GI50"
recorded_result = "> 100 µM (inactive)"

[[record]]
molecule = "CCOC(=O)c1ccc(-c2cc(C)no2)[nH]1"
parameter = "GI50"
recorded_result = "> 100 µM (inactive)"

[[record]]
molecule = "Cc1cccc(CNc2[nH]cnc3nncc2-3)c1"
parameter = "GI50"
recorded_result = "> 100 µM (inactive)"

[[record]]
molecule = "COC(=O)c1ccc(/C=C2\\Cc3ccccc3C2=O)cc1"
parameter = "GI50"
recorded_result = "> 100 µM (inactive)"

[[record]]
molecule = "COc1ccc(C2OC(c3ccncc3)=NN2C)cc1F (configuration not stated)"
parameter = "GI50"
recorded_result = "> 100 µM (inactive)"

[[record]]
molecule = "C=C(C)C1CC=C(C)C2(C1)OCC(C)(C)C(C)O2 (configuration not stated)"
parameter = "GI50"
recorded_result = "15.5 µM (inactive)"

[[record]]
molecule = "COc1cc(C2C(Cl)C(=O)N2NC(=O)Cc2ccccc2)ccc1O (configuration not stated)"
parameter = "GI50"
recorded_result = "73.3 µM (inactive)"

[[record]]
molecule = "Cc1c(C)n(-c2ccccc2)c2nc(S(C)(=O)=O)nc(S(C)(=O)=O)c12"
parameter = "GI50"
recorded_result = "1.92 µM (inactive)"

[[record]]
molecule = "CCOC(=O)CC1=CSC2=NCCN12"
parameter = "GI50"
recorded_result = "> 100 µM (inactive)"

[[record]]
molecule = "COC(=O)c1c(OC(C)=O)ccc2c1c1c(n2C)C(=O)c2ccccc2C1=O"
parameter = "GI50"
recorded_result = "46.8 µM (inactive)"

[[record]]
molecule = "N#CC(c1ccccc1)N(CCOCCOCCN(C(=O)c1ccccc1)C(C#N)c1ccccc1)C(=O)c1ccccc1 (configuration not stated)"
parameter = "GI50"
recorded_result = "> 100 µM (inactive)"

[[record]]
molecule = "CC(C)=CCc1c(O)cc(O)c2c1OC(c1ccc(O)cc1)C(O)C2=O (configuration not stated)"
parameter = "GI50"
recorded_result = "20.9 µM (inactive)"

[[record]]
molecule = "Cc1cc(=O)n(-c2ccccc2)c(=O)o1"
parameter = "GI50"
recorded_result = "> 100 µM (inactive)"

